test: Inhibition of C3b activation relative to compstatin
Positions of bridges follow the written chain, without caps; N, C: chain ends. Residues, ends and D or L forms follow the SMILES beside them.
parameter measured: logIC50
Reply with just the number.

{"columns": ["compound", "logIC50"],
 "data": [
  ["CC[C@H](C)[C@H](NC(C)=O)C(=O)N[C@H]1CSSC[C@@H](C(=O)N[C@H](C(N)=O)[C@@H](C)O)NC(=O)[C@H](C)NC(=O)[C@H](Cc2cnc[nH]2)NC(=O)[C@H](C)NC(=O)CNC(=O)[C@H](Cc2c[nH]c3ccccc23)NC(=O)[C@H](CC(=O)O)NC(=O)[C@H](CCC(N)=O)NC(=O)[C@H](C(C)C)NC(=O)[C@H](C(C)C)NC1=O (Ac-ICVVQDWGAHACT-NH2; disulfide 2-12)", 0.084],
  ["CC(C)[C@@H]1NC(=O)[C@@H](NC(=O)[C@@H](N)CC(=O)O)CSSC[C@@H](C(=O)N[C@H](C(N)=O)[C@@H](C)O)NC(=O)[C@H](CCCCN)NC(=O)[C@H](Cc2cnc[nH]2)NC(=O)[C@H](Cc2cnc[nH]2)NC(=O)CNC(=O)[C@H](Cc2c[nH]c3ccccc23)NC(=O)[C@H](CC(=O)O)NC(=O)[C@H](CCC(N)=O)NC(=O)[C@H](C(C)C)NC1=O (H-DCVVQDWGHHKCT-NH2; disulfide 2-12)", -0.264],
  ["CC[C@H](C)[C@H](NC(C)=O)C(=O)N[C@H]1CSSC[C@@H](C(=O)N[C@H](C(N)=O)[C@@H](C)O)NC(=O)[C@H](CCCNC(=N)N)NC(=O)[C@H](Cc2cnc[nH]2)NC(=O)[C@H](C)NC(=O)CNC(=O)[C@H](Cc2c[nH]c3ccc(F)cc23)NC(=O)[C@H](CC(=O)O)NC(=O)[C@H](CCC(N)=O)NC(=O)[C@H](Cc2c[nH]c3ccccc23)NC(=O)[C@H](C(C)C)NC1=O", 2.08]
]}

Read the next record carefully.
Given item CC[C@H](C)[C@H](NC(=O)[C@@H]1CSSC[C@H](NC(=O)[C@@H](NC(C)=O)[C@@H](C)CC)C(=O)N[C@@H](C(C)C)C(=O)N[C@@H](C(C)C)C(=O)N[C@@H](CCC(N)=O)C(=O)N[C@@H](CC(=O)O)C(=O)N[C@@H](Cc2c[nH]c3ccccc23)C(=O)NCC(=O)N[C@@H](Cc2cnc[nH]2)C(=O)N[C@@H](Cc2cnc[nH]2)C(=O)N[C@@H](CCCNC(=N)N)C(=O)N1)C(N)=O (Ac-ICVVQDWGHHRCI-NH2; disulfide 2-12) , the value recorded as its logIC50 is 0.574
